biological target: Porcine ventricle myofibrils (ventricular myosin ATPase) (Sus scrofa, UniProt P79293); construct: Myofibrils from porcine cardiac muscle was isolated from the left ventricle of Yucatan minipigs; tissue Exemplar Genetics; host or cells: left ventricle of Yucatan minipigs, myofibrils prepared in house; test: Myofibril ATPase assay, porcine ventricle myofibrils; type: biochemical, porcine (Yucatan minipigs); details: porcine ventricle myofibrils; Y75 value
Sequence (P79293 whole entry): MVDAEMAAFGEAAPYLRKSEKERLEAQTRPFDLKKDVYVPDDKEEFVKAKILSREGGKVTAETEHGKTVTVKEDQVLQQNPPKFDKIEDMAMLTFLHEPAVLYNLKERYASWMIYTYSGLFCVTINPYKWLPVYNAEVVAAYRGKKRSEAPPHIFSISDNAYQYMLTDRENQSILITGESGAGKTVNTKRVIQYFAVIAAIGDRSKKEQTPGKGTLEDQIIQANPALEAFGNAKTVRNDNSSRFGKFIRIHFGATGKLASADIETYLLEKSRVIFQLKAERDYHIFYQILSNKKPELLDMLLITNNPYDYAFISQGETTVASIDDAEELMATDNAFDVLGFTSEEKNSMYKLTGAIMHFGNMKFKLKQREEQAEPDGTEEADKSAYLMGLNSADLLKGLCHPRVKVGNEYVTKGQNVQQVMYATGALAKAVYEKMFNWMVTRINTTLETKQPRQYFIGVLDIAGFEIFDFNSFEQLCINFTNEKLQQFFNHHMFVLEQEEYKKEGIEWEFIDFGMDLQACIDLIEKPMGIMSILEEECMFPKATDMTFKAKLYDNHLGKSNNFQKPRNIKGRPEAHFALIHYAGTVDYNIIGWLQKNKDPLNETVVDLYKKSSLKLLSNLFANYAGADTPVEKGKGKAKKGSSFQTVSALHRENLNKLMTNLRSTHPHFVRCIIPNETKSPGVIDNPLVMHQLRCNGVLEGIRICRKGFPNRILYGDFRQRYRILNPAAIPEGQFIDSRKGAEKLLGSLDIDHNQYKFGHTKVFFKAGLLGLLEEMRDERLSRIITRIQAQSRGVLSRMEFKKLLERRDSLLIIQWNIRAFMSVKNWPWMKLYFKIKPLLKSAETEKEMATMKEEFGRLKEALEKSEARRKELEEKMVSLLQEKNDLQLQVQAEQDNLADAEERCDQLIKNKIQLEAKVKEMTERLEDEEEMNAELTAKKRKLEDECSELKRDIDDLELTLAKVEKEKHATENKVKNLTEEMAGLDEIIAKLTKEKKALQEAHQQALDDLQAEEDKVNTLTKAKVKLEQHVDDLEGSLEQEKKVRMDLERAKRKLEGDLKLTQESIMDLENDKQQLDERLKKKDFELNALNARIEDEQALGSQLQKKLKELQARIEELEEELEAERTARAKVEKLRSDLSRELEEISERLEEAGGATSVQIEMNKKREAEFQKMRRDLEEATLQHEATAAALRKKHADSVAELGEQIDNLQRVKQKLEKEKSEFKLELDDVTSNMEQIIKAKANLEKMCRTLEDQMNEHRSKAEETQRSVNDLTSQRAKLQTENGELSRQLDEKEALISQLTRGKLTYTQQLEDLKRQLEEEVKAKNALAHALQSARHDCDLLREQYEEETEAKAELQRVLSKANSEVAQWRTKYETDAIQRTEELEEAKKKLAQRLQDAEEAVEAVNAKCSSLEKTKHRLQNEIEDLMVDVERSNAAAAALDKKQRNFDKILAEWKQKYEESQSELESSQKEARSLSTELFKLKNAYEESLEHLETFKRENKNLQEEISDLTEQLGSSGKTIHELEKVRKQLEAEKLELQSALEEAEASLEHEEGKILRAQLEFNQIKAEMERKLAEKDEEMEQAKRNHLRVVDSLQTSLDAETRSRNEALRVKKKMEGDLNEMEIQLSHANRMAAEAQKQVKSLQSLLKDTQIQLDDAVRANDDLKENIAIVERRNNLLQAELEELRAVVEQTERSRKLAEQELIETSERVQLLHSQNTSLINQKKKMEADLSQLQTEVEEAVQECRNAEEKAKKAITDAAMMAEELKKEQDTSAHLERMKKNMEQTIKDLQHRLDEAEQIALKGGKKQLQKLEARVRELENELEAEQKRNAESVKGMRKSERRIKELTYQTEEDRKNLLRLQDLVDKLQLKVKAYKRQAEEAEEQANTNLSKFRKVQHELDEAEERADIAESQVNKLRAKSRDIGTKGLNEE
Quantity Kind: Ventricular EC25 (µM)

Sample answers from the record:
Which Ventricular EC25 value is on record for C[C@@H](NC(=O)Cc1c(C(F)(F)F)c2c(C3CC3)nccc2[nH]c1=O)c1ncc(C#N)cn1 (single isomer, unassigned) [compound 3001] ?
17.65

// same read-out, input: CCOc1ccc2[nH]c(=O)c(CC(=O)N[C@@H](C)c3ccc(F)cc3F)c(C)c2n1 [compound 414]
13.93

// same read-out, input: Cc1c([C@@H](C)C(=O)N[C@@H](C)c2ccc(C#N)cc2F)c(=O)[nH]c2ccnc(C#N)c12 (single isomer, unassigned) [compound 173]
0.30

// same read-out, input: Cc1c(CC(=O)N[C@@H](C)c2ccc(C#N)cn2)c(=O)[nH]c2ccc(OC(F)(F)F)nc12 [compound 450]
100.00

(A) Cc1nccc2[nH]c(=O)c(CC(=O)N[C@@H](C)c3ncc(C#N)cn3)c(C)c12 [compound 483]
(B) Cc1nccc2[nH]c(=O)c(C(F)(F)C(=O)N[C@H](CO)c3ncc(C#N)cc3F)c(C)c12 (single isomer, unassigned) [compound 3522]
Sorting ascending by Ventricular EC25, which comes first: A or B ? To answer, give the label that identifies your chosen option.
B

----------
tested on: Porcine atria myofibrils (atrial myosin ATPase); experiment: Myofibril ATPase assay, porcine atria myofibrils; type: biochemical; conditions: Y75 value (no ‡ mark); porcine atria myofibrils
Quantity Kind: Atrial EC25 (nM)

(P) Cc1c(CC(=O)N[C@H](C)c2ccc(C#N)nn2)c(=O)[nH]c2ccc(F)c(C3CC3)c12 (single isomer, unassigned) [compound 2057]
(Q) Cc1c(CC(=O)N[C@H](C)c2ccc(C#N)cn2)c(=O)[nH]c2ccc(F)c(C3CC3)c12 [compound 23]
(R) C[C@H](NC(=O)C1(c2cc3c(F)c(F)ccc3[nH]c2=O)CC1)c1ncc(C#N)cc1F (single isomer, unassigned) [compound 2593]
Order the records by Atrial EC25, with each subsequent value no larger than the one before. Please reply with the labels ordered as requested. Many thanks.
Q, P, R
(Q: 100000 nM, P: 650 nM, R: 190 nM)

----------
molecular target: Porcine ventricle myofibrils (ventricular myosin ATPase) (Sus scrofa); construct: Myofibrils from porcine cardiac muscle was isolated from the left ventricle of Yucatan minipigs; tissue Exemplar Genetics; host or cells: left ventricle of Yucatan minipigs, myofibrils prepared in house; assay: Myofibril ATPase assay, porcine ventricle myofibrils; format: biochemical, porcine (Yucatan minipigs); details: porcine ventricle myofibrils; Y75 value
Quantity Kind: Ventricular EC25 (µM)

What is its Ventricular EC25 for Porcine ventricle myofibrils (ventricular myosin ATPase) (Sus scrofa)? Entry: Cc1c(CC(=O)N[C@H](CO)c2ccc(C#N)cc2F)c(=O)[nH]c2ccc(C#N)nc12 [compound 220]
100.00

(1) Cc1nccc2[nH]c(=O)c(CC(=O)NC(CO)c3ncccc3F)c(C)c12 (stereo not shown) [compound 237]
(2) Cc1nccc2[nH]c(=O)c(CC(=O)N[C@@H](C)c3ccc(C#N)cc3F)c(F)c12 [compound 149]
(3) Cc1nccc2[nH]c(=O)c(CC(=O)N[C@@H]3COc4cc(F)cc(F)c43)c(C)c12 (single isomer, unassigned) [compound 288]
Reorder: Ventricular EC25, max to min. Please reply with the labels ordered as requested. Many thanks.
1, 3, 2

----------
system: Rabbit Psoas myofibrils (skeletal myosin ATPase); experiment: Myofibril ATPase assay, rabbit psoas (skeletal) myofibrils; assay type: biochemical; conditions: rabbit psoas myofibrils; Y75 value
Quantity Kind: Skeletal EC25 (nM)

(a) C[C@@H](NC(=O)Cc1cc2c(C#N)nccc2[nH]c1=O)c1ccc(C#N)cn1
(b) C[C@H](NC(=O)Cc1c(C(F)(F)F)c2ncccc2[nH]c1=O)c1ccc(F)cc1F
(c) Cc1nccc2[nH]c(=O)c([C@@H](C)C(=O)N[C@H](C)c3ncc(C#N)cc3F)c(C)c12 (single isomer, unassigned)
(d) C[C@H](NC(=O)Cc1cc2nc(Cl)ncc2[nH]c1=O)c1ccc(F)cc1F
Order the records by Skeletal EC25, with each subsequent value no larger than the one before. Please reply with the labels ordered as requested. Many thanks.
d, c, a, b
(d: 7060 nM, c: 4040 nM, a: 400 nM, b: 170 nM)

----------
tested on: Porcine atria myofibrils (atrial myosin ATPase); assay: Myofibril ATPase assay, porcine atria myofibrils; type: biochemical; conditions: Y75 value (no ‡ mark); porcine atria myofibrils
Quantity Kind: Atrial EC25 (nM)

Sample answers from the record:
Which Atrial EC25 value is on record for Cc1c(CC(=O)N[C@H](C)c2ccc(C#N)cn2)c(=O)[nH]c2ccc(F)cc12 ?
720

// same read-out, input: C[C@H](NC(=O)Cc1c(C2CC2)c2cc(F)ccc2[nH]c1=O)c1ccc(C#N)cc1F
690

// same read-out, input: Cc1nnccc1[C@H](C)NC(=O)Cc1c(C)c2cc(F)ccc2[nH]c1=O
53300

// same read-out, input: Cc1c(C(F)(F)C(=O)N[C@@H](C)c2ncc(C#N)cn2)c(=O)[nH]c2cccc(C#N)c12 (single isomer, unassigned)
1670

// same read-out, input: Cc1c(CC(=O)N[C@H](C)c2ccc(C#N)cc2F)c(=O)[nH]c2ccc(F)c(F)c12
230

(a) C[C@H](NC(=O)C1(c2cc3c(F)c(F)ccc3[nH]c2=O)CC1)c1nccc(C#N)n1 (single isomer, unassigned)
(b) Cc1c(C2(C(=O)N[C@@H](C)c3cccc(C#N)n3)CC2)c(=O)[nH]c2ccc(F)c(F)c12 (single isomer, unassigned)
(c) C[C@@H](NC(=O)Cc1cc2c(F)cc(F)cc2[nH]c1=O)c1ncc(C#N)cc1F
List the 3 entries from lowest Atrial EC25 to highest Atrial EC25 value. Please reply with the labels ordered as requested. Many thanks.
c, b, a

----------
biological target: Porcine ventricle myofibrils (ventricular myosin ATPase) (Sus scrofa); construct: Myofibrils from porcine cardiac muscle was isolated from the left ventricle of Yucatan minipigs; tissue Exemplar Genetics; host or cells: left ventricle of Yucatan minipigs, myofibrils prepared in house; experiment: Myofibril ATPase assay, porcine ventricle myofibrils; type: biochemical, porcine (Yucatan minipigs); conditions: porcine ventricle myofibrils; Y75 value
Quantity Kind: Ventricular EC25 (µM)

Sample answers from the record:
Which Ventricular EC25 value is on record for C[C@H](NC(=O)Cc1cc2nc(Cl)ccc2[nH]c1=O)c1ccc(F)cc1F ?
38.06

// same read-out, input: CCc1nccc2[nH]c(=O)c(CC(=O)N[C@@H](C)c3ccc(F)cc3F)cc12
100.00

// same read-out, input: Cc1c([C@H](C)C(=O)N[C@@H](C)c2ccc(F)cc2F)c(=O)[nH]c2ccnc(F)c12 (single isomer, unassigned)
4.58

// same read-out, input: COc1ccc2[nH]c(=O)c(CC(=O)N[C@@H](C)c3ccc(F)cc3F)c(C)c2n1
0.59

// same read-out, input: Cc1c(CC(=O)N[C@@H](C)c2ccc(C#N)cc2F)c(=O)[nH]c2ccc(C(F)(F)F)nc12 (single isomer, unassigned)
0.14

(A) Cc1c(CC(=O)N[C@H](C)c2ccc(C#N)cc2F)c(=O)[nH]c2ccnc(C(F)(F)F)c12
(B) Cc1nccc2[nH]c(=O)c(CC(=O)N[C@@H](C)c3ccncc3)c(C)c12 (single isomer, unassigned)
Sorting ascending by Ventricular EC25, which comes first: A or B ? To answer, give the label that identifies your chosen option.
A
(A: 1.19 µM, B: 100.00 µM)

(a) Cc1c(C(C)C(=O)N[C@@H](C)c2ccc(F)cc2F)c(=O)[nH]c2ccnc(I)c12 (some centres unmarked)
(b) Cc1ccc2[nH]c(=O)c(CC(=O)N[C@@H](C)c3ccc(F)cc3F)c(C)c2n1
(c) Cc1c(CC(=O)N[C@@H](CO)c2ccc(F)cc2F)c(=O)[nH]c2ccc(C#N)nc12
(d) Cc1nccc2[nH]c(=O)c([C@H](C)C(=O)N[C@@H](C)c3ccc(F)cc3F)c(C(F)(F)F)c12 (single isomer, unassigned)
List the 4 entries from lowest Ventricular EC25 to highest Ventricular EC25 value. Please reply with the labels ordered as requested. Many thanks.
b, a, c, d
(b: 2.34 µM, a: 5.41 µM, c: 53.99 µM, d: 100.00 µM)

(I) Cc1nccc2[nH]c(=O)c(CC(=O)N[C@H](C)c3ncc(C#N)cn3)c(C)c12
(II) Cc1c([C@H](C)C(=O)N[C@@H](C)c2ccc(F)cc2F)c(=O)[nH]c2ccnc(OC(F)(F)F)c12 (single isomer, unassigned)
(III) Cc1c(CC(=O)N[C@@H](C)c2ccc(C#N)cn2)c(=O)[nH]c2ccncc12
Reorder: Ventricular EC25, max to min. Please reply with the labels ordered as requested. Many thanks.
III, I, II
